This collection of values is drawn from BindingDB's records for doi:10.1002/cbic.200600287.

- TARGET_DESC: Dual specificity protein phosphatase 22 (Homo sapiens, UniProt Q9NRW4)
- Sequence (Q9NRW4 whole entry): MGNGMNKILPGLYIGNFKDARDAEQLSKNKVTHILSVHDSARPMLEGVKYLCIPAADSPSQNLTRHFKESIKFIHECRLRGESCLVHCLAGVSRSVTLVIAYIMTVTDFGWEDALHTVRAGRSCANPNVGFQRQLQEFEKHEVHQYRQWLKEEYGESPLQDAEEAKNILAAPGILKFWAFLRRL
PROPERTY_NAME: IC50

// COc1cc(/C=C2\SC(=S)N(c3cccc(Cl)c3)C2=O)cc([N+](=O)[O-])c1O : IC50 value = > 50 µM

* * *

- TARGET_DESC: Tyrosine-protein phosphatase non-receptor type 1 (Homo sapiens, UniProt P18031)
- Sequence (P18031 whole entry): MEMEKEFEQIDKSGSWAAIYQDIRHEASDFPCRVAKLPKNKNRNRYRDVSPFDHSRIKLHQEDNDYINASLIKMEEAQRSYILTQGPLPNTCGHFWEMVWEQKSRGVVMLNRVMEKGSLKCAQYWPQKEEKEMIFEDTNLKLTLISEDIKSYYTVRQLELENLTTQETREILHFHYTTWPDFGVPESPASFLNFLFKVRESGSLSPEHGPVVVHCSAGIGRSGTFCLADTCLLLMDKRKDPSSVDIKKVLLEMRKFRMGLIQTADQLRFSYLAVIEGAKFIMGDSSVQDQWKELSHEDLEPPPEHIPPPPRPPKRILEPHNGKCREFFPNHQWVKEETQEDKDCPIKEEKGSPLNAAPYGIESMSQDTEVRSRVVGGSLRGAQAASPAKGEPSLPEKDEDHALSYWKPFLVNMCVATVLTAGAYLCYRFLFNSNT
- MEASUREMENT_DESCRIPTION: PTP Assay
- CONDITIONS_USED: 25 °C
PROPERTY_NAME: pIC50
Lab note: report pIC50 as minus log10 of the concentration in molar units, number only.

Consider the following illustrative entries.
INSERT INTO results (chemical_smiles, target_desc, value_observed) VALUES
  ('COc1cc(/C=C2\SC(=S)N(c3cccc(C)c3)C2=O)cc([N+](=O)[O-])c1O', 'Tyrosine-protein phosphatase non-receptor type 1 (Homo sapiens, UniProt P18031)', 4.54),
  ('O=C1/C(=C/c2cc(O)c(O)c([N+](=O)[O-])c2)SC(=S)N1c1cccc(Cl)c1', 'Tyrosine-protein phosphatase non-receptor type 1 (Homo sapiens, UniProt P18031)', 4.74),
  ('COc1cc(/C=C2\SC(=S)N(c3ccc(Cl)cc3)C2=O)cc([N+](=O)[O-])c1O', 'Tyrosine-protein phosphatase non-receptor type 1 (Homo sapiens, UniProt P18031)', 5.27),
  ('COc1cc(/C=C2\SC(=S)N(c3ccc(C)cc3)C2=O)cc([N+](=O)[O-])c1O', 'Tyrosine-protein phosphatase non-receptor type 1 (Homo sapiens, UniProt P18031)', 5.06),
  ('COc1cccc(N2C(=O)/C(=C/c3cc(OC)c(O)c([N+](=O)[O-])c3)SC2=S)c1', 'Tyrosine-protein phosphatase non-receptor type 1 (Homo sapiens, UniProt P18031)', 4.80),
  ('COc1ccc(N2C(=O)/C(=C/c3cc(OC)c(O)c([N+](=O)[O-])c3)SC2=S)cc1', 'Tyrosine-protein phosphatase non-receptor type 1 (Homo sapiens, UniProt P18031)', 5.20);

response.value for COc1cc(/C=C2\SC(=S)N(c3cccc(Cl)c3)C2=O)cc(C(=O)O)c1O (field: pIC50) = 5.14
